Test system: 276233-004-R-J1-PDC KRAS spheroids with HUVEC/MSC, viability;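 further: cells exposed to agents for seven days before viability read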
Assay: Anticancer human tumor 276233-004-R-J1-PDC patient-derived colon adenocarcinoma cell line growth inhibition [KRAS2]
Conditions: second compound 0.316 µM; first compound 0.316 µM; stronger effect = lower value
Please note: viability, T/C exactly at 90% is n. Only values below 90% get y.

*Q* Say whether its viability, T/C is strictly beneath 90%. Entry: CC1COCCN1c1cc(-c2ccnn2C)c2ccnc(-c3ccn[nH]3)c2n1 (stereo not drawn) + CNCc1ccccc1-c1csc(C(C)Nc2nc(C)nc3cc(OC)c(OC)cc23)c1
*A* y

*Q* Just wondering, is viability, T/C of COc1cc(Nc2ncc3c(n2)-c2ccc(Cl)cc2C(c2c(F)cccc2OC)=NC3)ccc1C(=O)O + CC1OCC2(CCN(c3cnc(Sc4ccnc(N)c4Cl)c(N)n3)CC2)C1N below 90%?
*A* y

*Q* Does this compound meet the criterion viability, T/C < 90%? CC1OCC2(CCN(c3cnc(Sc4ccnc(N)c4Cl)c(N)n3)CC2)C1N (stereo not drawn) + C=CC(=O)N1CCN(c2nc(OCC3CCCN3C)nc3c2CCN(c2cccc4cccc(C)c24)C3)CC1CC#N
*A* y

*Q* Take the compound CC1(C)CCC(CN2CCN(c3ccc(C(=O)NS(=O)(=O)c4ccc(NCC5CCOCC5)c([N+](=O)[O-])c4)c(Oc4cnc5[nH]ccc5c4)c3)CC2)=C(c2ccc(Cl)cc2)C1 + C=CC(=O)N1CCN(c2nc(=O)n(-c3c(C)ccnc3C(C)C)c3nc(-c4c(O)cccc4F)c(F)cc23)C(C)C1 and say whether its viability, T/C is less than 90%.
*A* n

*Q* Below 90% on viability, T/C? Entry CCN1CCN(Cc2ccc(Nc3ncc(F)c(-c4cc(F)c5nc(C)n(C(C)C)c5c4)n3)nc2)CC1 + C=CC(=O)N1CCN(c2nc(=O)n(-c3c(C)ccnc3C(C)C)c3nc(-c4c(O)cccc4F)c(F)cc23)C(C)C1
*A* n

*Q* Regarding COc1cc2nccc(Oc3ccc(NC(=O)C4(C(=O)Nc5ccc(F)cc5)CC4)cc3)c2cc1OC + CNCc1ccccc1-c1csc(C(C)Nc2nc(C)nc3cc(OC)c(OC)cc23)c1 , kindly confirm whether its viability, T/C is beneath 90%.
*A* y
